The reported measurements were obtained from ChEMBL document CHEMBL5465560.

Biological target: UniProt:Q13882
Sequence (Q13882 whole entry): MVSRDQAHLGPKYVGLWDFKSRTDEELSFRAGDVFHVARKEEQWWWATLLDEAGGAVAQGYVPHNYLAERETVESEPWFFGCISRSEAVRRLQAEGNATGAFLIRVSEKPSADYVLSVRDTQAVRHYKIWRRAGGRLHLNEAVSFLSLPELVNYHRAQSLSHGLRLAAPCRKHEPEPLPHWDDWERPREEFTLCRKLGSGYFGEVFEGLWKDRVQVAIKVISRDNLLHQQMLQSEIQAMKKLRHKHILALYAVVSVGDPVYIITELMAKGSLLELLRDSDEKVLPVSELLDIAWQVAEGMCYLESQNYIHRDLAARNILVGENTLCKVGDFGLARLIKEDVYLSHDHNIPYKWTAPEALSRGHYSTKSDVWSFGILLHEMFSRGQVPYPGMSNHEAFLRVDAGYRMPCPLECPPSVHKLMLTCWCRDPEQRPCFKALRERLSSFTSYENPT
pIC50: −log10 of the molar value.
property.label: pIC50

Report pIC50 for "CCc1cccc(CC)c1NC(=O)c1nn(C)c2c1CCc1cnc(Nc3ccc(C(=O)NC4CCN(C)CC4)cc3OC(F)(F)F)nc1-2" please.
< 5.00

====

Biological target: UniProt P08588
Sequence (P08588 whole entry): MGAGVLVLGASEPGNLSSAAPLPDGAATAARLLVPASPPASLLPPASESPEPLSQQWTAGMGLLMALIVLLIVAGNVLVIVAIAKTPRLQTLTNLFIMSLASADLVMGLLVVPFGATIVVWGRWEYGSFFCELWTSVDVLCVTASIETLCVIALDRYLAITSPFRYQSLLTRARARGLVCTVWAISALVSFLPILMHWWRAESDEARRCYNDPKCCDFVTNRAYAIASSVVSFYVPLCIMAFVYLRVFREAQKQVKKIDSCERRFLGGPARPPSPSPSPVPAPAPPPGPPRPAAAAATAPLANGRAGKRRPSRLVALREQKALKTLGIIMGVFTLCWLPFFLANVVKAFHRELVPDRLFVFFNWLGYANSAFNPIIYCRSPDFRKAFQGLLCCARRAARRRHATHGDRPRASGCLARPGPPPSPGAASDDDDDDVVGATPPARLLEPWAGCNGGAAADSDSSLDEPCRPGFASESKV
Assay: Selectivity interaction (Beta 1 adrenergic receptor assay, human recombinant ) EUB0000877a ADRB1
pIC50: −log10 of the molar value.
property.label: pIC50

Report pIC50 for "CCC(=O)N1CC[C@H](Nc2ncnc3c2CN(c2cnc(OC)c(C(F)(F)F)c2)CC3)C1" please.
< 4.52

====

Molecular target: Mitogen-activated protein kinase 14 (Homo sapiens, UniProt Q16539)
Sequence (Q16539 whole entry): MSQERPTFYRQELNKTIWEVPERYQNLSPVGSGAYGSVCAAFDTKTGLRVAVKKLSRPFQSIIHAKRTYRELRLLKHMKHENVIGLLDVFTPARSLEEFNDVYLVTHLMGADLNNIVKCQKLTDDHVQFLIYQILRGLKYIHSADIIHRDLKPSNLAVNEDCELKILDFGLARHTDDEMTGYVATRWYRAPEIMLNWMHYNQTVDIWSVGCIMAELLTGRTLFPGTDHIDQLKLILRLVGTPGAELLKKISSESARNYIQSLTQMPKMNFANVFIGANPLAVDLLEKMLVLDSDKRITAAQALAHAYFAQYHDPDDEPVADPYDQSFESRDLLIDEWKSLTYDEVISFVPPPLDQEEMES
Experiment: Selectivity interaction (Enzyme panel (AstraZeneca, AlphaScreen, functional assay)) EUB0000621a MAPK14
pIC50: −log10 of the molar value.
property.label: pIC50

Report pIC50 for Cc1cc([C@@H](C)Nc2ccccc2C(=O)O)c2nc(N3CCOCC3)cc(=O)n2c1 [AZD-6482] please.
< 3.17

====

Biological target: Muscarinic acetylcholine receptor M1 (Homo sapiens)
Sequence (P11229 whole entry): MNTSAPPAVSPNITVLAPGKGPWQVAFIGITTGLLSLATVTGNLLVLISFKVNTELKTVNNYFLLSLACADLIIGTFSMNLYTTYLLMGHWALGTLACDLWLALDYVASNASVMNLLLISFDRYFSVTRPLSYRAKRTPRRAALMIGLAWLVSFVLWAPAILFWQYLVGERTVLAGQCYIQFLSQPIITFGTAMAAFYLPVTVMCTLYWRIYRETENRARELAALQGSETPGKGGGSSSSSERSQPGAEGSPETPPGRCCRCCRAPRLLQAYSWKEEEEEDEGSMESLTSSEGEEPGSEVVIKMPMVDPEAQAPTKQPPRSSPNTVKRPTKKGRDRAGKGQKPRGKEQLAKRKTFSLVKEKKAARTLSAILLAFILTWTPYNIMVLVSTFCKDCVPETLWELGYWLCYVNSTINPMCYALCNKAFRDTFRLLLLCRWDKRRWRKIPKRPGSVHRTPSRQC
Assay: Selectivity interaction (Muscarinic M1 receptor assay, human recombinant ) EUB0000877a CHRM1
property.label: IC50

Report IC50 for CCC(=O)N1CC[C@H](Nc2ncnc3c2CN(c2cnc(OC)c(C(F)(F)F)c2)CC3)C1 [LENIOLISIB] please.
> 30 µM

====

Molecular target: [Pyruvate dehydrogenase (acetyl-transferring)] kinase isozyme 1, mitochondrial (Homo sapiens)
Sequence (Q15118 whole entry): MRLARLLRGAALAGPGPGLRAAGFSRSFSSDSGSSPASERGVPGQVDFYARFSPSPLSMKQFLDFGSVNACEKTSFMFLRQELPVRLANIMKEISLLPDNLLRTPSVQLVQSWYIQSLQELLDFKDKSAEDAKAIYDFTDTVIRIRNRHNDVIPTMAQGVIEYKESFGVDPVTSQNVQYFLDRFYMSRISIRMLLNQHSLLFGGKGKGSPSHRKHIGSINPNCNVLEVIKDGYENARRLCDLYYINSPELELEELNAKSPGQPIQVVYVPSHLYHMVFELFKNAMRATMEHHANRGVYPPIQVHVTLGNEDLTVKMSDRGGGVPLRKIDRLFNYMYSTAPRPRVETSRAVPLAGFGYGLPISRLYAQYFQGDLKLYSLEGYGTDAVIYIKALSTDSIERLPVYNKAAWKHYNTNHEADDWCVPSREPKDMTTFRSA
property.label: IC50

Report IC50 for "CCc1cccc(CC)c1NC(=O)c1nn(C)c2c1CCc1cnc(Nc3ccc(C(=O)NC4CCN(C)CC4)cc3OC(F)(F)F)nc1-2" please.
> 10 µM

====

Molecular target: Activin receptor type-1B (Homo sapiens, UniProt P36896)
Sequence (P36896 whole entry): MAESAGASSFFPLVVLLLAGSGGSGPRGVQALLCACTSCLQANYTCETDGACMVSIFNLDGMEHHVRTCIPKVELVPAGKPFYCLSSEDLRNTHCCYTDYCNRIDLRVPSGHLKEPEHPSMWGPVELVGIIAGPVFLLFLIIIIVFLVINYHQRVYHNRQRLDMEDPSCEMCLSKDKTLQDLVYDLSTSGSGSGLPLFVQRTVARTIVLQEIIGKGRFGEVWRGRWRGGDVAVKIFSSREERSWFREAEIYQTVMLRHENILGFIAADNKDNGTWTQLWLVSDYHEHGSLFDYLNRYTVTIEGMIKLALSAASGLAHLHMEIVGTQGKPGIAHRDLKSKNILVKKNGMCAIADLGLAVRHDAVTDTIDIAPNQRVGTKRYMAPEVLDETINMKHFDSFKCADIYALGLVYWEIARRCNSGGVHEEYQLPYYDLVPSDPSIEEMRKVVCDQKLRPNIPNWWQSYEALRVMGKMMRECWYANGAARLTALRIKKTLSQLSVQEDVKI
Assay: Selectivity interaction (NanoBRET assay (HEK293T cells)) EUB0001465a ACVR1B
property.label: IC50

Please state recorded IC50 (tested on Activin receptor type-1B (Homo sapiens, UniProt P36896)) of "COc1cc(-c2cncc(-c3ccc(N4CCN(C(C)C)CC4)cc3)c2C)cc(F)c1C(=O)N1CCCC1"
> 10 nM

====

Target: Protein arginine N-methyltransferase 1 (Homo sapiens, UniProt Q99873)
Sequence (Q99873 whole entry): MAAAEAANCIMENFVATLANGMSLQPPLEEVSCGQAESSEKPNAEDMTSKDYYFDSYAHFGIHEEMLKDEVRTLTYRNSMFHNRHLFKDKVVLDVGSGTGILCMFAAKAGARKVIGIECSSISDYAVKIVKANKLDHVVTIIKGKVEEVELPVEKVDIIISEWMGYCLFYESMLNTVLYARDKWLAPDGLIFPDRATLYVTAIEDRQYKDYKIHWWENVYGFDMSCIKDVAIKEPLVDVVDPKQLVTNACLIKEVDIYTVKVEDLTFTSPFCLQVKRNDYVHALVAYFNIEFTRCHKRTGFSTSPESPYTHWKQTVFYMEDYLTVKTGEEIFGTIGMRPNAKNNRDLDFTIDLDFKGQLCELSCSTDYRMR
Experiment: Selectivity interaction (Western blot assay (PRMT1 dependent H4R3 asymmetric arginine dimethylation)) EUB0000236b PRMT1
pEC50: −log10 of the molar value.
property.label: pEC50

Please state recorded pEC50 (tested on Protein arginine N-methyltransferase 1 (Homo sapiens, UniProt Q99873)) of "CC1=C(C)C(=O)C(C(C)(C)CC(=O)N(CCCCSC[C@H]2O[C@@H](n3cnc4c(N)ncnc43)[C@@H]3OC(C)(C)O[C@@H]32)Cc2cccc(-c3ccc(Cl)cc3)c2)=C(C)C1=O"
< 8.30

====

Biological target: Death-associated protein kinase 1 (Homo sapiens)
Sequence (P53355 whole entry): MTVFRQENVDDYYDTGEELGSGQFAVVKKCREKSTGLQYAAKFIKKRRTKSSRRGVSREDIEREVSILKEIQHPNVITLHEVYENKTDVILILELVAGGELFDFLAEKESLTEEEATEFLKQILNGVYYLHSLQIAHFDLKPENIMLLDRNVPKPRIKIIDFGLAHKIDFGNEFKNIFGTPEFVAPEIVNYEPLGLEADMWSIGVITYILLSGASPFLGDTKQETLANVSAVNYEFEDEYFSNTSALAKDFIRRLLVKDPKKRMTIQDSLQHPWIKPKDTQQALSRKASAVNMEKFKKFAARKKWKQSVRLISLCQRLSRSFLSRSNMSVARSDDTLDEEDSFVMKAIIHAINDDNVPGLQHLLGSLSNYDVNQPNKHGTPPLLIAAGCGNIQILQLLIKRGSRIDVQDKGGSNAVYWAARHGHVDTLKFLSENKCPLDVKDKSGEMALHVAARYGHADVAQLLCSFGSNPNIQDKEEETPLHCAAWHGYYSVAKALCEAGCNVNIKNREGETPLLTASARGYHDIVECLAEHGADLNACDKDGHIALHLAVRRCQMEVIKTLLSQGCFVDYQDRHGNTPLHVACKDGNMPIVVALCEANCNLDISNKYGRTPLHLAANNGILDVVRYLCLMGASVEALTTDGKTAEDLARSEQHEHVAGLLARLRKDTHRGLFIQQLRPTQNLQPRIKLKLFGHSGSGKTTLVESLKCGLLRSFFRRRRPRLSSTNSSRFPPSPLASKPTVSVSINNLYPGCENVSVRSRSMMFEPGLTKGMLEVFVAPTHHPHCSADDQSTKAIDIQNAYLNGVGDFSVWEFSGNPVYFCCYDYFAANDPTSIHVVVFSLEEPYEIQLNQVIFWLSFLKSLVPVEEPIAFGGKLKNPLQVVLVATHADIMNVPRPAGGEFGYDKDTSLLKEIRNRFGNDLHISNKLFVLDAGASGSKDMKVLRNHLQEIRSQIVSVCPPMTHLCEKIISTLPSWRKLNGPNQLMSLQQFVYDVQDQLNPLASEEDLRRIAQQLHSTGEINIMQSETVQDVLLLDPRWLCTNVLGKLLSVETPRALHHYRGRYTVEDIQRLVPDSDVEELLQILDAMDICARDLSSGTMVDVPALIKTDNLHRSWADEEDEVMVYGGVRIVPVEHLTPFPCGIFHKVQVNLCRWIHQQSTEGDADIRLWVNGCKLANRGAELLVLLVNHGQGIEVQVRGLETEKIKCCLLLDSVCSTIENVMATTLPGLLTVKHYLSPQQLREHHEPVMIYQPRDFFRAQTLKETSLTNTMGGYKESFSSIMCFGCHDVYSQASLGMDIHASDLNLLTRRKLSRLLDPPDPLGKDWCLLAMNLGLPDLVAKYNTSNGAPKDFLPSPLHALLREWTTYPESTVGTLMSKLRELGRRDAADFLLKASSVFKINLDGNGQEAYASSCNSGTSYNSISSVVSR
Test: Selectivity interaction (KinomeScan (DiscoverX, competition-binding assay)) EUB0001547a DAPK1
property.label: pKd
Schema: pKd number; meaning minus log10 of the concentration expressed in molar units.

Report pKd for "N[C@@H]1CCCN(c2c(/C=C3\SC(=O)NC3=O)cccc2-c2ccccc2)C1" please.
6.38

====

Molecular target: Bromodomain-containing protein 4 (Homo sapiens)
Test: Selectivity interaction (AlphaScreen binding assay) EUB0001632a BRD4
pIC50: −log10 of the molar value.
property.label: pIC50

Report pIC50 for "Cn1cc(-n2cnc3c(NCc4nc5cc(Cl)c(Cl)cc5[nH]4)nc(N4CCOCC4)nc32)cn1" please.
< 5.00
